Each entry below carries its recorded IgG column peak width.
# system.name: human serum polyclonal antibodies
# assay.procedure: cross-interaction chromatography (CIC), column with human serum polyclonal IgG
Please give the number followed by its unit.

Completed entries (count: 3):
- binder: "anti-human MCT1 antibody Ab8 (antibody, human IgG1, kappa, V domains shown) VH: QVQLVQSGAEVKKPGASVKVSCTVSGRSLTNYHLQWVRQAPGQGLEWMGFIRSSGNTIYNSEFKSRVTMTRDTSTSTVYMELSSLRSEDTAVYYCARNRWYHGTYYSPGYYVMDAWGQGTLVTVSS VL: EIVLTQSPGTLSLSPGERATLSCKGSQNIENYLAWYQQKPGQAPRLLIYNRHNLQTGIPDRFSGSGSGTDFTLTISRLEPEDFAVYYCYQYSDGYTFGGGTKVEIKR"
  endpoint: "IgG column peak width"
  observed.measurement: "1.55 min"
- binder: "anti-human MCT1 antibody Ab18 (antibody, human IgG1, kappa, V domains shown) VH: QVQLVQSGAEVKKPGASVKVSCTVSGRSLTNYHLGWVRQAPGQGLEWMGFIRSSGNTEYNSEFKSRVTMTRDTSTSTVYMELSSLRSEDTAVYYCARNRWYHGTYYSPGYYVMDAWGQGTLVTVSS VL: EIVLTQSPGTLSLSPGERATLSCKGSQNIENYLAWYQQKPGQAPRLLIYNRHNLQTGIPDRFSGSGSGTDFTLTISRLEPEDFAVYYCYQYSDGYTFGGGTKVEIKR"
  endpoint: "IgG column peak width"
  observed.measurement: "1.64 min"
- binder: "anti-human MCT1 antibody Ab15 (antibody, human IgG1, kappa, V domains shown) VH: QVQLVQSGAEVKKPGASVKVSCTVSGRSLTNYHLQWVRQAPGQGLEWMGFIRSSGNTEYNSEFKSRVTMTRDTSTSTVYMELSSLRSEDTAVYYCARNLWYHGTYYSPGYYVMDAWGQGTLVTVSS VL: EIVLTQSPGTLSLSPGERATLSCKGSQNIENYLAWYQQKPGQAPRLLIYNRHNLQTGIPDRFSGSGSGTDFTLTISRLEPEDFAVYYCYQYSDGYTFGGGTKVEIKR"
  endpoint: "IgG column peak width"
  observed.measurement: "1.55 min"

Task: Let me know recorded IgG column peak width for anti-human MCT1 antibody Ab14 (antibody, human IgG1, kappa, V domains shown) VH: QVQLVQSGAEVKKPGASVKVSCTVSGRSLTNYHLQWVRQAPGQGLEWMGFIRSSGNTEYNSEFKSRVTMTRDTSTSTVYMELSSLRSEDTAVYYCARNRWYHGTYYSPGYYVMDPWGQGTLVTVSS VL: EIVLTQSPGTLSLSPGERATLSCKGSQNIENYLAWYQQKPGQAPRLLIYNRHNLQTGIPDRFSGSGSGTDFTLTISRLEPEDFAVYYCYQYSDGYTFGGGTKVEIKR , thanks.
Result: 1.51 min
